Overview of recorded growth inhibition for various compounds
- ASSAY PROCEDURE: NCI Yeast Anticancer Drug Screen. Data for the sgs1 strain (AID 173);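 further: 0% = growth of vehicle-only control cultures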
- CONDITION SET: S. cerevisiae sgs1 mutant, at 33.0 µM, hits give high values
Compounds without any hit were thinned out: in the full panel of roughly 79,000, 15% have a hit.
ASSAY METRIC: growth inhibition (%)

> print(dat)
                                    compound  reading
 1      O=S(=O)(Oc1c(Cl)cc(Cl)cc1Cl)c1ccccc1       22
 2    CCOC(=O)/C=C1\CCCn2c1ncc(C(=O)OCC)c2=O       24
 3  O=C(Nn1c(-c2ccccc2)nc2ccccc2c1=O)c1ccc(Cl)cc1       78
 4  CCCC#CCOC(=O)c1cc([N+](=O)[O-])cc([N+](=O)[O-])c1       99
 5  Cc1ccccc1C1=C(CC(=O)O)c2ccccc2CC1C (configuration not stated)       98
 6          CC(=O)O/N=C/c1c2ccccc2cc2ccccc12       29
 7      Cc1ccc2nc(N/N=C/c3ccc(C)s3)cc(C)c2c1       99
 8  Cc1c(N=Nc2ccc(Cl)cc2)c(C)n(C2OC(CO)C(O)C(O)C2O)c(=S)c1C#N (configuration not stated)       55
 9  CCOC(=O)C(NC(=O)c1ccccc1)[CH](c1ccccc1)[Sn]([c]1ccccc1)([c]1ccccc1)[c]1ccccc1 (configuration not stated)       34
10              O=C1C=CC(=O)N1c1ccc(Br)cc1Cl       99
11    Cc1ccc2c(/C=C/c3ccc(N(C)C)cc3)ccnc2c1C       82
12  [O-]c1c2cc(-[n+]3c(-c4ccccc4)cc(-c4ccccc4)cc3-c3ccccc3)cc1COCCOCCOCCOCCOC2       18
13  O=C(Cc1ccccc1F)NC1=C(Cl)C(=O)c2ccccc2C1=O       59
14              COc1ccc(C(=O)OCCc2ccccc2)cc1       -2
15  CCCCCC(=O)C(C)(c1nc2n(c1O)/C(=N/C(=O)Nc1ccc(Cl)cc1)N=N2)c1nc2n(c1O)/C(=N/C(=O)Nc1ccc(Cl)cc1)N=N2       25
16  Cc1ccc(N(C=O)c2c([N+](=O)[O-])cc([N+](=O)[O-])c3c2=[N+]([O-])CN=3)cc1       89
17  O=C1C(C(O)(C(F)(F)F)C(F)(F)F)CCC1C(O)(C(F)(F)F)C(F)(F)F (configuration not stated)       28
18  CCSc1c2ccccc2c(-c2nc(F)nc(F)n2)n1CCc1ccccc1       79
19  O=C(O)[C@H]1[C@@H](C2CCCCC2)O[C@@H](C2CCCCC2)O[C@H]1C(F)(F)F        1
20                 O=C(Cc1ccccc1)c1ccc(O)cc1       59
21                    CC(C)(C(=O)NN)c1ccccc1       71
22       CCOc1nc(OCC)nc(-c2cccn2-c2ccccc2)n1       43
